B1: TPR 5TU (parent)
chain: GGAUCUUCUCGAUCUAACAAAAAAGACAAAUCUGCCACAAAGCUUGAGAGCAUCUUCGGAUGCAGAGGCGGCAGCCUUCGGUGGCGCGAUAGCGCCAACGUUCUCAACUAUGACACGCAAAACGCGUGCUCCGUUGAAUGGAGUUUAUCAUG

# Variants of: B1
# procedure.summary: polymerase ribozyme fitness, log enrichment relative to wild type (log ratio); higher = more active; in vitro selection for triplet polymerase activity
Fewer inactive variants are shown than the library holds.

>  <variant.notation>
U6A G68A G83C U90G C118U

>  <polymerase ribozyme fitness (log ratio)>
≤ -4.2

$$$$
>  <variant.notation>
A30C A41G C76U G83A A89U G124A C131U C132G G143A U144A C149A

>  <polymerase ribozyme fitness (log ratio)>
≤ -4.2

$$$$
>  <variant.notation>
A39U A41C G80C G84U A142C C149A

>  <polymerase ribozyme fitness (log ratio)>
≤ -4.2

$$$$
>  <variant.notation>
A29U A66U C96U

>  <polymerase ribozyme fitness (log ratio)>
≤ -4.2

$$$$
>  <variant.notation>
U4C U53A G92C C114A A120G

>  <polymerase ribozyme fitness (log ratio)>
≤ -4.2

$$$$
>  <variant.notation>
A21U A26G G71A C125U

>  <polymerase ribozyme fitness (log ratio)>
≤ -4.2

$$$$
>  <variant.notation>
A16G C38A U56G C96U C103U C149G

>  <polymerase ribozyme fitness (log ratio)>
≤ -4.2

$$$$
>  <variant.notation>
C51U G83U

>  <polymerase ribozyme fitness (log ratio)>
-0.266

$$$$
>  <variant.notation>
G48C G86U C95A C96G G117C G136A

>  <polymerase ribozyme fitness (log ratio)>
≤ -4.2

$$$$
>  <variant.notation>
U45G A47C A142G

>  <polymerase ribozyme fitness (log ratio)>
-3.91

$$$$
>  <variant.notation>
A16C U101G U127A

>  <polymerase ribozyme fitness (log ratio)>
-3.71

$$$$
>  <variant.notation>
U55A C103U

>  <polymerase ribozyme fitness (log ratio)>
-0.726

$$$$

Measured values drawn from the RNAGym collection of RNA variant scans (doi:10.1073/pnas.2313332121) for this set.
